// provenance: patent US20120165306A1

target: Cdk9/cyclinT1 (Homo sapiens); test: Cdk9/cyclinT1 kinase assay (IMAP or Alpha Screen protocol)
Sequence (P50750 whole entry): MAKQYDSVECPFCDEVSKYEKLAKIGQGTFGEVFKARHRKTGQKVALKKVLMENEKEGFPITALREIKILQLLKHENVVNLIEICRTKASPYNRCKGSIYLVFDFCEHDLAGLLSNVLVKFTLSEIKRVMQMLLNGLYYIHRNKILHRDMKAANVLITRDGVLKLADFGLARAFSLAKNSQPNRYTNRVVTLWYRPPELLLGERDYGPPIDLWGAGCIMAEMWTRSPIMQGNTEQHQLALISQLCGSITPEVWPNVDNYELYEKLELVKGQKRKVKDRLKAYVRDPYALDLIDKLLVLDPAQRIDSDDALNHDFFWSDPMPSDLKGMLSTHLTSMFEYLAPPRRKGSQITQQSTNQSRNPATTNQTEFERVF
Sequence (O60563 whole entry partner): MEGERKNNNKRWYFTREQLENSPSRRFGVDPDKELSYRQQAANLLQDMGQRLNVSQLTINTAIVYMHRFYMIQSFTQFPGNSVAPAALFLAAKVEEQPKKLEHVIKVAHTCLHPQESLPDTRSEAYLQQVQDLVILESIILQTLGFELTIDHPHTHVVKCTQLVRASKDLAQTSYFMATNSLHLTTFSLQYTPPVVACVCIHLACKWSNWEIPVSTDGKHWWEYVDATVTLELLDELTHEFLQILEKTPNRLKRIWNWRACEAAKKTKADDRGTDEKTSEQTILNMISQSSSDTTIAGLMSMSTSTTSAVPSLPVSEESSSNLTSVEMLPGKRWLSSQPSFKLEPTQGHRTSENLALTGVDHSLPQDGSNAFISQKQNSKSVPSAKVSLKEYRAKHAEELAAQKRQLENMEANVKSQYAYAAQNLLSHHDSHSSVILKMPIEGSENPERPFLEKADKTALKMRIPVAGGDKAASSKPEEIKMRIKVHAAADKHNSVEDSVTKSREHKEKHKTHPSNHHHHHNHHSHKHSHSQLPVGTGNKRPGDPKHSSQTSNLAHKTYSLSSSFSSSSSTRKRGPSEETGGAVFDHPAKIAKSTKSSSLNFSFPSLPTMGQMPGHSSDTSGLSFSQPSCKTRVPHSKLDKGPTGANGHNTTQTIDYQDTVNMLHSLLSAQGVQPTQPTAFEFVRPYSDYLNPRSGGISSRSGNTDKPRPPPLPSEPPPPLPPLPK
measuredQuantity: IC50 (nM)

compound	experimentalTarget	quantityUnit	op	measured
CC(C)S(=O)(=O)N1CCC[C@H](C(=O)Nc2cc(-c3cncc(NCC4CCOCC4)n3)c(Cl)cn2)C1 [Example 56]	Cdk9/cyclinT1 (Homo sapiens)	nM	<	8
O=C(Nc1cc(-c2cncc(NCCN3CCCC3=O)n2)c(Cl)cn1)[C@@H]1CCCNC1 [Example 32]	Cdk9/cyclinT1 (Homo sapiens)	nM	=	20
O=C(Nc1cc(-c2cncc(NCC3CCOCC3)n2)c(Cl)cn1)[C@@H]1CCNC1 [Example 41]	Cdk9/cyclinT1 (Homo sapiens)	nM	<	8
COCC(=O)Nc1cc(-c2cncc(NCC3CCOCC3)n2)c(Cl)cn1 [Example 10]	Cdk9/cyclinT1 (Homo sapiens)	nM	=	124
